Reference for the values: paper PMC9865645

# target-desc: commercial His6-hTGase 2 (Homo sapiens)
# Construct: purchased Zedira (Darmstadt, Germany) T022, lot 0716a
# Sequence (P21980 1-687): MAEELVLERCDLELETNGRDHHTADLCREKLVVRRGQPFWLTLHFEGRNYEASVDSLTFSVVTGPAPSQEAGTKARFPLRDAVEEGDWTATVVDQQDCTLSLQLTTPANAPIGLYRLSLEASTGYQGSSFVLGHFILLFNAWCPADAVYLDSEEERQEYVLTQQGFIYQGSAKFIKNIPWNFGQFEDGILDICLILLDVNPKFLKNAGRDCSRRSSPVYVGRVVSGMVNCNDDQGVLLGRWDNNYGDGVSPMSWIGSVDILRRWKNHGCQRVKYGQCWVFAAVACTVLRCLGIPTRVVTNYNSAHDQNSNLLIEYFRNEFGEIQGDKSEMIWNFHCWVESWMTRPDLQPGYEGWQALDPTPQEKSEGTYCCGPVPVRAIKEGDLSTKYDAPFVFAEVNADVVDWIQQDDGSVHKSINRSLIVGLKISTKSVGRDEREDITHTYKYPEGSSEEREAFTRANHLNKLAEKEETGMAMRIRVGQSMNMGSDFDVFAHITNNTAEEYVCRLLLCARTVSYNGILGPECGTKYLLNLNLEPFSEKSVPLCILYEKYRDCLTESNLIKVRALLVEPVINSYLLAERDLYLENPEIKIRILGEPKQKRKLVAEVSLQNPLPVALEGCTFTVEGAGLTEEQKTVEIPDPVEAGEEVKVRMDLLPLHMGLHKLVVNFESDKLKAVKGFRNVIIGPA
# procedure-details: fluorescence anisotropy (FA)-based transamidase activity assay, commercial His6-hTGase 2
# Format: biochemical
# condition-context: FA assay, 30 min pre-incubation; range over in-house and commercial hTGase 2 (62–64 nM)
quantity-name: IC50

Look up IC50: C=CC(=O)NCCCC[C@H](NC(=O)Cc1ccccc1I)C(=O)N1CCN(c2ccc([N+](=O)[O-])nc2)CC1
35 to 47 nM
